Data credit: patent US11472778B2

biological target: wild-type GT1a NS3/4A protease (UniProt P27958); construct: Ki WT; other: wild-type HCV NS3/4A protease; assay type: biochemical, Hepatitis C virus; details: read-out: Ki WT; wild-type HCV NS3/4A protease
pKi: −log10 of the molar value.
Listed here are compounds together with their documented pKi.
readout-label: pKi

* C=C[C@@H]1C[C@]1(NC(=O)[C@@H]1C[C@@H](Oc2nc3cc(OC)ccc3nc2C)CN1C(=O)[C@@H](NC(=O)OC1CCCC1)C(C)(C)C)C(=O)NS(=O)(=O)C1(C)CC1 [Compound 12b] | 8.15
* CCc1nc2ccc(OC)cc2nc1O[C@@H]1C[C@H]2C(=O)N[C@]3(C(=O)NS(=O)(=O)C4CC4)C[C@H]3/C=C\CCCCC[C@H](NC(=O)OC(C)(C)C)C(=O)N2C1 [Compound 2] | 8.70
* C=C[C@@H]1C[C@]1(NC(=O)[C@@H]1C[C@@H](Oc2nc3cc(OC)ccc3nc2C)CN1C(=O)[C@@H](NC(=O)OC(C)(C)C)C(C)(C)C)C(=O)NS(=O)(=O)C1CC1 [Compound 9b] | 7.74

* * *

# log10 EC50 listing for each entry below
test system: HCV replicon D168V variant in Huh7 cells; experiment: microbe, parasite or virus in culture; format: cell-based, Hepatitis C virus; details: Hepatitis C virus, Huh-7, read-out: Replicon EC50 (nM) D168V, Table 4
readout-label: log10 EC50 (log10 of the value in nM)

• COc1ccc2nc(C(F)(F)F)c(O[C@@H]3C[C@H]4C(=O)N[C@]5(C(=O)NS(=O)(=O)C6CC6)C[C@H]5/C=C\CCCCC[C@H](NC(=O)OC5CCCC5)C(=O)N4C3)nc2c1 [Compound 22d] = 1.38
• COc1ccc2nc(C)c(O[C@@H]3C[C@H]4C(=O)N[C@]5(C(=O)NS(=O)(=O)C6(C)CC6)C[C@H]5/C=C\CCCCC[C@H](NC(=O)OC(C)(C)C)C(=O)N4C3)nc2c1 [Compound 19b] = 0.20
• COc1ccc2nc(Cl)c(O[C@@H]3C[C@H]4C(=O)N[C@]5(C(=O)NS(=O)(=O)C6(C)CC6)C[C@H]5/C=C\CCCCC[C@H](NC(=O)OC(C)(C)C)C(=O)N4C3)nc2c1 [Compound 19c] = -0.31
• CCc1nc2ccc(OC)cc2nc1O[C@@H]1C[C@H]2C(=O)N[C@]3(C(=O)NS(=O)(=O)C4(C)CC4)C[C@H]3/C=C\CCCCC[C@H](NC(=O)OC3CCCC3)C(=O)N2C1 [Compound 23a] = 0.85
• O=C(N[C@H]1CCCCC/C=C\[C@@H]2C[C@@]2(C(=O)NS(=O)(=O)C2CC2)NC(=O)[C@@H]2C[C@@H](Oc3nc4ccccc4nc3-c3cccs3)CN2C1=O)OC1CCCC1 [Compound 22f] = 1.85

* * *

system: HCV replicon A156T variant in Huh7 cells; assay: microbe, parasite or virus in culture; format: cell-based, Hepatitis C virus; conditions: Hepatitis C virus, Huh-7, read-out: Replicon EC50 (nM) A156T, Table 9
EC50 by entry:
readout-label: EC50 (nM)

* C=C[C@@H]1C[C@]1(NC(=O)[C@@H]1C[C@@H](Oc2nc3cc(OC)ccc3nc2Cl)CN1C(=O)[C@@H](NC(=O)OC(C)(C)C)C(C)(C)C)C(=O)NS(=O)(=O)C1CC1 | 107
* C=C[C@@H]1C[C@]1(NC(=O)[C@@H]1C[C@@H](Oc2nc3cc(OC)ccc3nc2C)CN1C(=O)[C@@H](NC(=O)OC1CCCC1)C(C)(C)C)C(=O)NS(=O)(=O)C1(C)CC1 [Compound 12b] | 87
* C=C[C@@H]1C[C@]1(NC(=O)[C@@H]1C[C@@H](Oc2nc3cc(OC)ccc3nc2Cl)CN1C(=O)[C@@H](NC(=O)OC(C)(C)C)C(C)(C)C)C(=O)NS(=O)(=O)C1(C)CC1 [Compound 10d] | 100
